// provenance: PubChem BioAssay (NCATS)

System: CP217
PROTOCOL SUMMARY: qHTS profiling for inhibitors of Plasmodium falciparum proliferation (AID 504749); further: nearly all actives have a fitted effect of over 60% in size
ASSAY CONDITIONS: P. falciparum in erythrocytes, SYBR Green DNA, 72 h; series mostly up to 28.7 µM
Records with an inconclusive call do not appear. Activity calls are given as the source filed them. The call rests on the fitted dose curve; in most records, active means well fitted inhibition curve with a large enough effect; inconclusive means small, poorly fitted or top-dose-only effect; inactive means flat fitted curve, though single readings scatter.
Your response should consist of one outcome taken from active, inactive

Answered cases to consult:
CC1(C)SC2[C@@H](N=CN3CCCCCC3)C(=O)N2[C@H]1C(=O)O (stereo partly drawn) | inactive
O=C(O)C(O)c1ccccc1 (stereo not drawn) | inactive
O=C(OC[C@@H]1O[C@@](O)(COC(=O)c2cccnc2)[C@H](OC(=O)c2cccnc2)[C@H]1OC(=O)c1cccnc1)c1cccnc1 | inactive
Cc1cnc(NC(=O)C2C(=O)c3ccccc3S(=O)(=O)N2C)s1 (stereo not drawn) | inactive

Q: Write down the call the test reported for this compound. Item: NC(=O)C1CC2(NC(=O)NC2=O)c2cc(F)ccc2O1 (stereo not drawn)
Result: inactive

====

System: CP247
PROTOCOL SUMMARY: qHTS profiling for inhibitors of Plasmodium falciparum proliferation (AID 504749); further: nearly all actives have a fitted effect of over 60% in size
ASSAY CONDITIONS: P. falciparum in erythrocytes, SYBR Green DNA, 72 h; series mostly up to 28.7 µM
Results filed as inconclusive are left out. The source made the active and inactive calls. Calls come from the whole dose curve; as a rule, active = well fitted inhibition curve with a large enough effect; inconclusive = small, poorly fitted or top-dose-only effect; inactive = flat fitted curve, though single readings scatter.
Your response should consist of one outcome taken from class 1 for active, class 0 for inactive

Answered cases to consult:
C=C(CC[C@@H](C)[C@H]1CCC2[C@]1(C)CC[C@]13C[C@@]14CCC(OC(=O)/C=C/c1ccc(O)c(OC)c1)C(C)(C)[C@@H]4CC[C@@]23C)C(C)C (some centres not stated) | class 0
OCCOC[C@H]1O[C@H](OCCO)[C@H](OCCO)[C@@H](OCCO)[C@@H]1OCCO (tested in a mixture with another compound) | class 0
CC(CCC(=O)O)C1CCC2C3C(=O)C[C@@H]4CC(=O)CC[C@@]4(C)C3CC(=O)[C@]12C (some centres not stated) | class 0

Q: Write down the call the test reported for this compound. Item: N#C/C(=C1/SCC(c2ccccc2Cl)S1)n1ccnc1 (configuration not stated)
Result: class 0

Q: What do we get for C[C@H]1[C@@H](OC(=O)CCC(=O)O)OC2OC3(C)CC[C@H]4[C@H](C)CC[C@@H]1[C@@]24OO3 (some centres not stated) ?
Result: class 1

Q: What do we get for `CCN(CC)C(=O)[C@@]1(c2ccccc2)C[C@@H]1CN` ?
Result: class 0

Q: What do we get for CC[C@@H](C)C(N)C(=O)O (some centres not stated) ?
Result: class 0

Q: What do we get for CC1(C)SC2C(NC(=O)C(C(=O)O)c3ccccc3)C(=O)N2C1C(=O)O (configuration not stated) ?
Result: class 0

====

PROTOCOL SUMMARY: AP1 Signaling Pathway (AID 357);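 further: ME-180 reporter cells stimulated with EGF at its EC50 level; on the % scale 0 is the no-effect control and ±100 the full control effect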
ASSAY CONDITIONS: ME-180 (cervical carcinoma) AP-1-bla reporter, EGF-induced, beta-lactamase ratio, 5 h; at 17.2 µM (top of the series) unless noted
Inconclusive results are not listed. Activity calls are given as the source filed them. Calls follow the shape of the dose curve; as a rule, active = well fitted curve in either direction with a large enough effect (not every such curve was filed as active); inconclusive = small, poorly fitted or top-dose-only effect, or another doubt; inactive = flat fitted curve, though single readings scatter.
Listed below: activity change, negative = inhibition values for each entry.

CCOC(=O)c1c(C)oc2ccc(OCC(=O)C(C)(C)C)cc12 | -23.5% (inactive)
O=S(=O)(c1ccc(Cl)cc1)N1CCC(N2CCCCCC2)CC1 | 9.12% (inactive)
O=c1/c(=C/c2ccccn2)sc2n1CN(c1ccccc1)CN=2 | 0.239% (inactive)
Cc1ccc(N2C(=O)CC3(CC4C=CC3C4)C2=O)cc1 (stereo not given) | 28.9% (inactive)
O=C1NC(c2cccs2)Nc2ccccc21 (stereo not given) | -27% (inactive)

Q: I would be grateful if you could share the reported activity change, negative = inhibition for `Cc1cc(O)ccc1-c1cnc2ccccc2n1` .
Result: 5.77% (inactive)

Q: What do we get for `CC1(C)Cc2c(sc3c2C(=O)N(c2ccccc2)C2=NCCCN23)CO1` ?
Result: 9.3% (inactive)

Q: What do we get for `COC(=O)c1ccccc1OCc1cccc(C)n1` ?
Result: -1.62% (inactive)

Q: What do we get for CN1CCC2(CC1)C1CN(C)CC=C1C(C#N)=C(N)C2(C#N)C#N (stereo not given) ?
Result: 6.27% (inactive)

Q: What do we get for `CC1(C)Cc2c(c(N3CCCCC3)[nH]c(=S)c2C#N)CS1` ?
Result: 3.57% (inactive)

Q: What do we get for O=C1CC(c2ccccc2)n2nc(NS(=O)(=O)c3ccccc3)nc2N1 (stereo not given) ?
Result: 22.4% (inactive)

Q: What do we get for `Clc1ccc(-c2nn3c(-c4cccc(Cl)c4)nnc3s2)cc1` ?
Result: 10.2% (inactive)

Q: What do we get for `COc1ccc(OC)c2c(N)c(C#N)c(C(F)(F)C(F)(F)F)nc12` ?
Result: 5.08% (inactive)

====

STUDY SYSTEM: Muscarinic acetylcholine receptor M1 (Rattus norvegicus) (UniProt P08482)
Sequence (P08482 whole entry, looked up): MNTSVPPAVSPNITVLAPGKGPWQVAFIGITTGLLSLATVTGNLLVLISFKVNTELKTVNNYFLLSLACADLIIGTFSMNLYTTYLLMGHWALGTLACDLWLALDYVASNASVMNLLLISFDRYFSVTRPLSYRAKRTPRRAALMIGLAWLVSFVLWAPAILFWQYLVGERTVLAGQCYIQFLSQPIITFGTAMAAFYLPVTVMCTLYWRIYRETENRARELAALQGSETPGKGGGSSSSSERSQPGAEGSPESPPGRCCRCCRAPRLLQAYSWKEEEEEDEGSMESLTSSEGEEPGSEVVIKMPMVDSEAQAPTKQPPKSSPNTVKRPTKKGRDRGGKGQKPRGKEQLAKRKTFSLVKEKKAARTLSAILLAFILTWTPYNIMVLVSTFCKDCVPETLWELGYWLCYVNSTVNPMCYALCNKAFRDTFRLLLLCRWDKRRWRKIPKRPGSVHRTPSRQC
PROTOCOL SUMMARY: qHTS Assay for Antagonists of Acetylcholine Muscarinic M1 Receptor: Kinetic Measurement of Intracellular Calcium Response (AID 943); further: nearly all actives have a fitted effect of over 75% in size
ASSAY CONDITIONS: M1-expressing cells, kinetic intracellular calcium fluorescence; series mostly up to 35.3 µM
Results filed as inconclusive are left out. The source made the active and inactive calls. Calls come from the whole dose curve; as a rule, active = well fitted inhibition curve with a large enough effect; inconclusive = small, poorly fitted or top-dose-only effect; inactive = no such curve, though single readings can be large or run the other way.
Your response should consist of one outcome taken from active, inactive

Answered cases to consult:
O=C(O)C[C@@H]1CCCc2ccccc2[C@H]1O | inactive
O=c1[nH]c(=O)n([C@H]2C[C@H](O)[C@H](CO)O2)cc1/C=C\Br | inactive
Nc1ncnc2c1ncn2[C@@H]1O[C@@H](CO)[C@H](O)[C@@H]1O | inactive
CCCCCCCCCCCCCCCCCC(=O)O[C@H](CC(=O)O)C[N+](C)(C)C | active
O[Si@](CCCN1CCCCC1)(c1ccc(F)cc1)C1CCCCC1 | active

Q: Write down the call the test reported for this compound. Item: `COc1cccc2c1[C@@H]1CN(CCCCn3c(=O)[nH]c4c(sc5ncc(-c6ccccc6)nc54)c3=O)C[C@H]1CO2`
Result: active

Q: What do we get for `OC[C@@H]1O[C@@H](n2cnc3cncnc32)[C@@H](O)[C@H]1O` ?
Result: inactive

Q: What do we get for `CCCCCCCCCCCCCCCCCC(=O)NC[C@@H](COP(=O)([O-])OCC[N+](C)(C)C)OCC` ?
Result: active

====

Test system: CP305
PROTOCOL SUMMARY: qHTS profiling for inhibitors of Plasmodium falciparum proliferation (AID 504749); further: nearly all actives have a fitted effect of over 60% in size
ASSAY CONDITIONS: P. falciparum in erythrocytes, SYBR Green DNA, 72 h; series mostly up to 28.7 µM
Inconclusive results are not listed. The source made the active and inactive calls. Calls follow the shape of the dose curve; as a rule, active = well fitted inhibition curve with a large enough effect; inconclusive = small, poorly fitted or top-dose-only effect; inactive = flat fitted curve, though single readings scatter.
Your response should consist of one outcome taken from active, inactive

Answered cases to consult:
C=NC(C(=O)NC1C(=O)N2C1SC(C)(C)C2C(=O)O)c1ccccc1 (stereo not given) | inactive
CO/N=C(/C(=O)N[C@@H]1C(=O)N2C(C(=O)O)=C(CSc3nc(C)c(CC(=O)O)s3)CS[C@H]12)c1csc(N)n1 | inactive
CC1=C(C/C=C(\C)CCCC(C)CCCC(C)CCCC(C)C)C(=O)c2ccccc2C1=O (stereo not given) | inactive
O=C1NC(=O)C2C3C=CC(C3)C12 (stereo not given) | inactive

Q: Write down the call the test reported for this compound. Item: `O=C(O)Cc1sc(-c2ccc(Cl)cc2)nc1-c1ccccc1`
Result: inactive

Q: What do we get for OC[C@@H](O)C(O[C@@H]1O[C@@H](CO)[C@H](O)[C@H](O)[C@H]1O)[C@H](O)[C@@H](O)CO (stereo not given in full) ?
Result: inactive

Q: What do we get for Nc1nc(Cl)nc2c1ncn2[C@@H]1O[C@H](CO)[C@H](O)C1F (stereo not given in full) ?
Result: inactive

Q: What do we get for COC1CC2CCC(C)[C@](O)(O2)C(=O)C(=O)N2CCCCC2C(=O)OC(C(C)CC2CCC(O)C(OC)C2)CC(=O)C(C)/C=C(/C)C(O)C(OC)C(=O)C(C)CC(C)C=CC=C/C=C\1C (stereo not given in full) ?
Result: active

Q: What do we get for CCOC(=O)C(CCc1ccccc1)NC(C)C(=O)N1Cc2cc(OC)c(OC)cc2CC1C(=O)O (stereo not given) ?
Result: inactive

Q: What do we get for CC1(C)SC2[C@@H](N=CN3CCCCCC3)C(=O)N2[C@H]1C(=O)O (stereo not given in full) ?
Result: inactive

Q: What do we get for COC(c1ccccc1)(c1ccccc1)C(Oc1nc(C)cc(C)n1)C(=O)O (stereo not given) ?
Result: inactive

====

Test system: DIV14
PROTOCOL SUMMARY: qHTS profiling for inhibitors of Plasmodium falciparum proliferation (AID 504749); further: nearly all actives have a fitted effect of over 60% in size; further: potency means the concentration at half of the fitted maximal effect
ASSAY CONDITIONS: P. falciparum in erythrocytes, SYBR Green DNA, 72 h; series mostly up to 28.7 µM
Inconclusive results are not listed. Calls of active or inactive are those of the source. The call rests on the fitted dose curve; in most records, active means well fitted inhibition curve with a large enough effect; inconclusive means small, poorly fitted or top-dose-only effect; inactive means flat fitted curve, though single readings scatter.
MEASURED QUANTITY: Potency

Examples from the recorded data:
O=C(O)Cc1sc(-c2ccc(Cl)cc2)nc1-c1ccccc1 | inactive
Nc1nc(/C(=C/CC(=O)O)C(=O)NC2C(=O)N3C(C(=O)O)=CCSC23)cs1 (stereo not drawn) | inactive
C=C[C@H]1CN2CCC1C[C@H]2[C@H](O)c1ccnc2ccc(OC)cc12 (stereo partly drawn) | 757 nM (active)
CO/N=C(/C(=O)N[C@@H]1C(=O)N2C(C(=O)O)=C(C[n+]3ccc(N)n3CCO)CS[C@H]12)c1csc(N)n1 | inactive

Q: I would be grateful if you could share the reported Potency for `CN[C@H](C)CCC=C(C)C` .
Result: 151 nM (active)

Q: What do we get for `C=C(NCc1ccccc1)c1ccccc1O` ?
Result: inactive

Q: What do we get for C=C[C@@]1(C)C[C@H](OC(=O)CSC(C)(C)CNC(=O)[C@@H](N)C(C)C)[C@@]2(C)C(C)CC[C@@]3(CCC(=O)[C@@H]32)[C@H](C)[C@H]1O (stereo partly drawn) ?
Result: 6010 nM (active)

Q: What do we get for COc1cc2c(cc1O)CCN[C@@]21CS[C@H]2c3c(OC(C)=O)c(C)c4c(c3C(COC1=O)N1C2C2c3c(cc(C)c(OC)c3O)CC([C@@H]1O)N2C)OCO4 (stereo partly drawn) ?
Result: 0.4 nM (active)

Q: What do we get for `C=C1/C(=C\C=C2/CCC[C@]3(C)[C@@H]([C@H](C)/C=C/[C@@H](O)C4CC4)CC[C@@H]23)C[C@@H](O)C[C@@H]1O` ?
Result: inactive

Q: What do we get for CC1(C(=O)O)CCC2(C)CCC3(C)C(=CC(=O)C4C5(C)CCC(O)C(C)(C)C5CCC43C)C2C1 (stereo not drawn) ?
Result: inactive

Q: What do we get for `CCCSS/C(CCO)=C(/C)N(C=O)Cc1cnc(C)nc1N` ?
Result: inactive

Q: What do we get for OCC1O[C@H](Oc2ccc(O)cc2)C(O)C(O)C1O (stereo partly drawn) ?
Result: inactive

Q: What do we get for COC(=O)C1[C@@H](OC)C(OC(=O)COc2ccc(OC)cc2)C[C@@H]2CN3CCc4c([nH]c5cc(OC)ccc45)[C@H]3C[C@H]12 (stereo partly drawn) ?
Result: 7570 nM (active)

Q: What do we get for `O=C1CC[C@H](C(=O)N[C@@H]2C[C@H]2c2ccccc2)N1` ?
Result: inactive

Q: What do we get for `CCOc1ccccc1O[C@@H](c1ccccc1)[C@@H]1CNCCO1` ?
Result: 1690 nM (active)

Q: What do we get for CC(c1ncncc1F)[C@](O)(Cn1cncn1)c1ccc(F)cc1F (stereo partly drawn) ?
Result: inactive

Q: What do we get for C[C@H]1[C@@H](OC(=O)CCC(=O)O)OC2OC3(C)CC[C@H]4[C@H](C)CC[C@@H]1[C@@]24OO3 (stereo partly drawn) ?
Result: 3.4 nM (active)

Q: What do we get for Cc1cn([C@H]2CC(F)[C@@H](CO)O2)c(=O)[nH]c1=O (stereo partly drawn) ?
Result: inactive
